Measurement target: T1, recombinant, soluble human ASGR-1 (human, UniProt P07306 62-291)
T1 construct: biotinylated in the binning assay; also called soluble huASGR-1; Soluble ASGR-1 (Amgen)
T1 sequence: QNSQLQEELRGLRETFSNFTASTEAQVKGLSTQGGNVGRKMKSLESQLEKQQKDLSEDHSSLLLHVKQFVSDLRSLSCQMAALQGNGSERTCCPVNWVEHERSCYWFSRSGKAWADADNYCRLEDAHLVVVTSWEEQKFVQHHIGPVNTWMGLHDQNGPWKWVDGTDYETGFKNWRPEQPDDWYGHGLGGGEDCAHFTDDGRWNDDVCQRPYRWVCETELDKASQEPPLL
Experiment description: Octet BLI dissociation, pH 5.6 minus calcium
Description: The relative dissociation of ASGR-1 from antibodies was measured using a label-free assay on an OctetHTX instrument (Fortebio). Antibody samples were captured on anti-HuFc kinetic biosensors (ForteBio cat #18-5064) at 5 ug/mL in assay buffer (10 mM Tris, 0.1% Triton, 150 mM NaCl, 1 mg/mL BSA, 1 mM CaCl2, pH7.4) for three minutes. […] Soluble ASGR-1 (Amgen) at 6 ug/ml in assay buffer was added and association to the antibodies was monitored for two minutes. […]
Metric name: % Change Compared to pH 7.4 + Calcium (%)
Answer with a number only, understood to be in %.

# input Report % Change Compared to pH 7.4 + Calcium for 27E7 (antibody, V domains shown, hybridoma mAb) VH: QVQLVESGGGVVQPGRSLRLSCAASGFTFSSYGMHWVRQAPGKGLEWVAVIWYDGSNKYYADSVKGRFTISRDNSKNTLYLQMNSLRAEDTAVYYCAREDSYCSSTSCPYYYYYGMDVWGQGTTVTVSS VL: SYELTQPPSVSVSPGQTASITCSGDKLGNKYACWYQQKPGQSPVEVIYQDSKRPLGIPERFSGSNSGNTATLTISGTQAMDEADYYCQAWDSSTVVFGGGTKLTVL
# output 46

Values compiled from patent US20190248902A1.
